Please respond with reported Ratio IC50 for every item in the list.
Organism: Homo sapiens
measurementDescription: Ratio of IC50 for BuChE to IC50 for AchE
Output spec: single numeric token, no unit.

Using the record for CN(CCCCOc1ccc2c(=O)c3ccccc3oc2c1)Cc1ccccc1 , report its Ratio IC50. 0.42

Return reported Ratio IC50; argument: COc1ccccc1CN(C)CCCOc1ccc2c(=O)c3ccccc3oc2c1 0.56

I would be grateful if you could share the reported Ratio IC50 for CN(CCCCCCCOc1ccc2c(=O)c3ccccc3oc2c1)Cc1ccccc1[N+](=O)[O-] . 0.03

Please give the measured Ratio IC50 for this compound: COc1ccc(CN(C)CCCCCCCOc2ccc3c(=O)c4ccccc4oc3c2)c(OC)c1OC 0.006

Which Ratio IC50 is reported for this compound? COc1cc2oc3cc(OCCCCCCCN(C)Cc4ccccc4)ccc3c(=O)c2cc1OC 1.33

Name the reported Ratio IC50 value associated with the compound COc1ccccc1CN(C)CCCCCCCOc1ccc2c(=O)c3ccccc3oc2c1 0.43

Could you tell me which Ratio IC50 is on file for CN(CCCCCCCOc1ccc2c(=O)c3ccccc3oc2c1)Cc1cccc(Cl)c1 ? 0.1

Look up Ratio IC50: CN(CCCCCCOc1ccc2c(=O)c3ccccc3oc2c1)Cc1ccccc1 0.49

If you can, please state the reported Ratio IC50 value of CN(CCCCCOc1ccc2c(=O)c3ccccc3oc2c1)Cc1ccccc1 . 0.32

Quick one: Ratio IC50 of CN(CCCOc1ccc2c(=O)c3ccccc3oc2c1)Cc1ccccc1 ? 3.11

Query (compound): CN(CCCCCCCOc1ccc2c(=O)c3ccccc3oc2c1)Cc1ccccc1 ; field requested: Ratio IC50 0.28

Give the measured Ratio IC50 of CN(CCCCCCCOc1ccc2c(=O)c3ccccc3oc2c1)Cc1ccccc1Cl . 0.62

Quick check: Ratio IC50 of COc1ccc(OC)c(CN(C)CCCCCCCOc2ccc3c(=O)c4ccccc4oc3c2)c1 ? 0.01

Consider the compound CN(CCCCCCCCOc1ccc2c(=O)c3ccccc3oc2c1)Cc1ccccc1 and give its measured Ratio IC50. 0.008

Fill in the blank: the reported Ratio IC50 of COc1cccc(CN(C)CCCCCCCOc2ccc3c(=O)c4ccccc4oc3c2)c1 is ____. 0.05

Fill in: Ratio IC50 of COc1cccc(CN(C)CCCCCCCOc2ccc3c(=O)c4ccccc4oc3c2)c1OC is ___ 0.014

Give its Ratio IC50 value. Item: CN(CCCCCCCOc1ccc2c(=O)c3ccccc3oc2c1)Cc1ccc(Cl)cc1 0.12

Record request: Ratio IC50 value, item COc1ccc2c(=O)c3ccc(OCCCCCCCN(C)Cc4ccccc4)cc3oc2c1 5.9

So what does the record say about Ratio IC50 for COc1ccc(CN(C)CCCCCCCOc2ccc3c(=O)c4ccccc4oc3c2)cc1 ? 0.006

Consider the compound CNC(=O)Oc1cccc(CN(C)CCCCCCCOc2ccc3c(=O)c4ccccc4oc3c2)c1 and give its measured Ratio IC50. 51.6

I'd like to know its Ratio IC50. The compound in question is CCN(CCCCCCCOc1ccc2c(=O)c3ccccc3oc2c1)Cc1ccccc1OC 0.1

Entry Cc1ccccc1CN(C)CCCCCCCOc1ccc2c(=O)c3ccccc3oc2c1 : reported Ratio IC50 = ? 0.05

====

targetSystem: Cholinesterase (Homo sapiens, UniProt P06276)
Sequence (P06276 whole entry): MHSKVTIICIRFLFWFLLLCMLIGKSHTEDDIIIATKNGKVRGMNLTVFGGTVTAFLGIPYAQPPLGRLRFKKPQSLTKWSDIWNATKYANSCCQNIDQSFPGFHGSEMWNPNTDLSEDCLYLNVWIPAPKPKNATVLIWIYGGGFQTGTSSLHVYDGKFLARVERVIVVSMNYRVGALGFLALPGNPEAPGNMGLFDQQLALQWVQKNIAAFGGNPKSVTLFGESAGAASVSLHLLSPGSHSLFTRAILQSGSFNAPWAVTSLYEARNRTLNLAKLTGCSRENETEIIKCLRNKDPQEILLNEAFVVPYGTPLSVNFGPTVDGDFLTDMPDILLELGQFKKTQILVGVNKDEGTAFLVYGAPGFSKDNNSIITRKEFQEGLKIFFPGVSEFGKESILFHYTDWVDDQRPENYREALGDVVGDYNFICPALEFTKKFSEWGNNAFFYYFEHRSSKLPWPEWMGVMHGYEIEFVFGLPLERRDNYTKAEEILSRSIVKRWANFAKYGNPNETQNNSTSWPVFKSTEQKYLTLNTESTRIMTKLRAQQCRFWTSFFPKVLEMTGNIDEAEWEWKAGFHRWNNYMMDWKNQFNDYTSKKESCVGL
measurementDescription: Inhibition of human serum BuChE
measureName: IC50 (nM)
Give the quantity in nM, number only.

Quick one: IC50 of CN(CCCCCCOc1ccc2c(=O)c3ccccc3oc2c1)Cc1ccccc1 ? 1430

Look up IC50 for this compound: CN(CCCCCOc1ccc2c(=O)c3ccccc3oc2c1)Cc1ccccc1 2490

Field request: IC50 | item: CCN(CCCCCCCOc1ccc2c(=O)c3ccccc3oc2c1)Cc1ccccc1OC 320

For the compound shown here, COc1ccc(OC)c(CN(C)CCCCCCCOc2ccc3c(=O)c4ccccc4oc3c2)c1 , give the reported IC50. 1270

Item CN(CCCCOc1ccc2c(=O)c3ccccc3oc2c1)Cc1ccccc1 has what recorded IC50? 2650

Need IC50 of CN(CCCCCCCOc1ccc2c(=O)c3ccccc3oc2c1)Cc1ccccc1 , thanks. 800

Name the recorded IC50 for COc1cccc(CN(C)CCCCCCCOc2ccc3c(=O)c4ccccc4oc3c2)c1 . 1850

Look up IC50 for this compound: COc1ccccc1CN(C)CCCOc1ccc2c(=O)c3ccccc3oc2c1 1910

# query: IC50 of entry CN(CCCCCCCOc1ccc2c(=O)c3ccccc3oc2c1)Cc1ccccc1Cl 269000

Look up IC50: CN(CCCCCCCCOc1ccc2c(=O)c3ccccc3oc2c1)Cc1ccccc1 80

# input compound: COc1cccc(CN(C)CCCCCCCOc2ccc3c(=O)c4ccccc4oc3c2)c1OC ; wanted: its IC50 2010

Recorded IC50 for COc1ccc2c(=O)c3ccc(OCCCCCCCN(C)Cc4ccccc4)cc3oc2c1 , please? 46100

Any idea what IC50 was measured for COc1ccccc1CN(C)CCCCCCCOc1ccc2c(=O)c3ccccc3oc2c1 ? 930

# lookup: IC50 of CN(CCCCCCCOc1ccc2c(=O)c3ccccc3oc2c1)Cc1ccccc1[N+](=O)[O-] 14000

Given the entry CN(CCCOc1ccc2c(=O)c3ccccc3oc2c1)Cc1ccccc1 , report its measured IC50. 8330

Please give the measured IC50 for this compound: COc1ccc(CN(C)CCCCCCCOc2ccc3c(=O)c4ccccc4oc3c2)cc1 2110

# get_value(readout='IC50', item= COc1ccc(CN(C)CCCCCCCOc2ccc3c(=O)c4ccccc4oc3c2)c(OC)c1OC ) 1000

I have this compound here, Cc1ccccc1CN(C)CCCCCCCOc1ccc2c(=O)c3ccccc3oc2c1 , and I need its recorded IC50. 29500

For the compound shown here, COc1cc2oc3cc(OCCCCCCCN(C)Cc4ccccc4)ccc3c(=O)c2cc1OC , give the reported IC50. 3080

May I ask what IC50 has been recorded for CN(CCCCCCCOc1ccc2c(=O)c3ccccc3oc2c1)Cc1ccc(Cl)cc1 ? 127000

Suppose we examine the compound CN(CCCCCCCOc1ccc2c(=O)c3ccccc3oc2c1)Cc1cccc(Cl)c1 ; what IC50 value has been reported? 63800

====

targetSystem: Acetylcholinesterase (Homo sapiens)
Sequence (P22303 whole entry): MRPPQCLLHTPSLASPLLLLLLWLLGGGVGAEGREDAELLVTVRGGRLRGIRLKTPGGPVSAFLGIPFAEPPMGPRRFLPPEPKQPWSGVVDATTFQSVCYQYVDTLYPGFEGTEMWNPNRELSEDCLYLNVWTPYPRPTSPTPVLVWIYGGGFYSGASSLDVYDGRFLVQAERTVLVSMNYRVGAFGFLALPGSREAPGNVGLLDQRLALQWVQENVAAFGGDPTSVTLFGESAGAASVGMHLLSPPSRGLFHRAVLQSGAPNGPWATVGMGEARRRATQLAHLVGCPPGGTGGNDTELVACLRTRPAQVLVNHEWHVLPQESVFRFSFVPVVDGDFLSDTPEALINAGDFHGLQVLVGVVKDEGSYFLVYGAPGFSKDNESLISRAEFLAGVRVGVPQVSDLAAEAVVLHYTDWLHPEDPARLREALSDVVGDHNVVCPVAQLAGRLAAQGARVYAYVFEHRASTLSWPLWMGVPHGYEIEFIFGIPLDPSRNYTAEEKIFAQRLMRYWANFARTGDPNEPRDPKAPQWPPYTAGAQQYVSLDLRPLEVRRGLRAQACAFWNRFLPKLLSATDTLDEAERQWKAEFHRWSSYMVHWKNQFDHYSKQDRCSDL
measurementDescription: Inhibition of human erythrocyte AchE
measureName: pIC50
Quick note: pIC50 values are minus log10 of concentrations in mol/L.

API: value(readout= pIC50, system= Acetylcholinesterase (Homo sapiens), query= CN(CCCCCOc1ccc2c(=O)c3ccccc3oc2c1)Cc1ccccc1 ) 5.11

// fetch Acetylcholinesterase (Homo sapiens) pIC50 for COc1ccc(OC)c(CN(C)CCCCCCCOc2ccc3c(=O)c4ccccc4oc3c2)c1 3.90

What reported pIC50 corresponds to CN(CCCCCCCOc1ccc2c(=O)c3ccccc3oc2c1)Cc1ccc(Cl)cc1 on Acetylcholinesterase (Homo sapiens)? 2.98

Under Acetylcholinesterase (Homo sapiens): pIC50 value of COc1cc2oc3cc(OCCCCCCCN(C)Cc4ccccc4)ccc3c(=O)c2cc1OC ? 5.63

Recorded pIC50 for CN(CCCCCCCCOc1ccc2c(=O)c3ccccc3oc2c1)Cc1ccccc1 with Acetylcholinesterase (Homo sapiens), please? 4.99

Provide value of pIC50 for this record tested with Acetylcholinesterase (Homo sapiens): CCN(CCCCCCCOc1ccc2c(=O)c3ccccc3oc2c1)Cc1ccccc1OC 5.50

Param readout= pIC50; system= Acetylcholinesterase (Homo sapiens); entry= COc1ccccc1CN(C)CCCOc1ccc2c(=O)c3ccccc3oc2c1 ; returns value. 5.47

What value of pIC50 on Acetylcholinesterase (Homo sapiens) does Cc1ccccc1CN(C)CCCCCCCOc1ccc2c(=O)c3ccccc3oc2c1 have? 3.25

Please tell me: pIC50 of COc1ccc2c(=O)c3ccc(OCCCCCCCN(C)Cc4ccccc4)cc3oc2c1 , system Acetylcholinesterase (Homo sapiens)? 5.11

Record lookup: for Acetylcholinesterase (Homo sapiens), what pIC50 belongs to COc1ccc(CN(C)CCCCCCCOc2ccc3c(=O)c4ccccc4oc3c2)c(OC)c1OC ? 3.81

====

Species: Homo sapiens
measurementDescription: Ratio of IC50 for AchE to IC50 for BuChE
Decision: Ratio IC50 >= 20 yields rule met, all other cases yield rule not met.

Could you tell me if the measured Ratio IC50 of COc1cc2oc3cc(OCCCCCCCN(C)Cc4ccccc4)ccc3c(=O)c2cc1OC reaches 20 or more? rule not met

In plain terms: is recorded Ratio IC50 at least 20 for CN(CCCCCCCCCOc1ccc2c(=O)c3ccccc3oc2c1)Cc1ccccc1 ? rule met

Hi, just wondering whether CN(CCCCCCCCOc1ccc2c(=O)c3ccccc3oc2c1)Cc1ccccc1 shows Ratio IC50 of 20 or higher. rule met

Could you please find out whether CN(CCCCCCCCCCOc1ccc2c(=O)c3ccccc3oc2c1)Cc1ccccc1 has Ratio IC50 that meets 20 or exceeds it? rule met

Kindly determine if Ratio IC50 recorded for CN(CCCCCCCOc1ccc2c(=O)c3ccccc3oc2c1)Cc1ccccc1Cl is above or exactly 20. rule not met

Hi team, for COc1cccc(CN(C)CCCCCCCOc2ccc3c(=O)c4ccccc4oc3c2)c1 , is the recorded Ratio IC50 at or above 20? rule met

Test whether the compound CN(CCCOc1ccc2c(=O)c3ccccc3oc2c1)Cc1ccccc1 records Ratio IC50 of 20 or higher. rule not met

Does the compound CNC(=O)Oc1cccc(CN(C)CCCCCCCOc2ccc3c(=O)c4ccccc4oc3c2)c1 have recorded Ratio IC50 that is 20 or more? rule not met

Is Ratio IC50 for COc1ccc2c(=O)c3ccc(OCCCCCCCN(C)Cc4ccccc4)cc3oc2c1 at or above 20? rule not met

Is Ratio IC50 at least 20? Consider CN(CCCCCCCCCCCOc1ccc2c(=O)c3ccccc3oc2c1)Cc1ccccc1 rule met
